endpoint_label: melting point

Suppose we examine the compound N#Cc1ncn2c(C(F)(F)F)cc(-c3ccc(Cl)cc3Cl)nc12 ; what melting point value has been reported? 139 °C

Would you kindly repeat that for c1cc(-c2ccc(OCCCN3CCCC3)cc2)ccc1OCCCN1CCCCC1 ? 105 to 108 °C

Would you kindly repeat that for CC(C)C(=O)ON(C(=O)NN(C)C)C1c2ccccc2Oc2ccccc21 ? 131 to 132 °C

Would you kindly repeat that for N=C(N)Nc1nc(CSCCC2=NS(=O)(=O)NC(N)=N2)cs1 ? 175 to 192 °C

Would you kindly repeat that for COC(=O)C=C(N)CC(=O)OC ? 47 to 50 °C

Would you kindly repeat that for Cc1ccc(CSc2c(O)cc(-c3ccccc3)oc2=O)cc1 ? 164 to 165 °C

Would you kindly repeat that for O=C(O)C(=O)c1ccc(OCCOc2ccc(Cl)cc2)cc1 ? 121 to 122 °C

Data origin: a melting point compilation (Tetko et al.; mined from patent text by program, amines drawn as free bases though some values may be those of a salt)
